MEASUREMENT NOTES: blockers of measles virus-induced cell death – single point, MLSMR library, absorbance, measles RdRp inhibitor project, primary screen (AID 841)
CONDITION PARAMETERS: Measles virus-infected cells, CPE protection, at 4 µM, stronger effect = higher value
The whole screen tested about 140,000 compounds, of which about 2,100 (1.5%) were called active. What follows is part of a selection rich in actives, with near analogues and random picks from the rest.
Fulfilled if protection (pct of control) is below 9%. Not fulfilled if not; exact matches included in Not fulfilled.

Use the examples below as a reference point.
> print(dat)
                                   compound  discrete.label
1  Cc1ccc(C)c(OCC(=O)N2CCN(C(=O)c3ccco3)CC2)c1   Not fulfilled
2  COC(=O)c1ccc(C(=O)OC)c(NC(=S)N2CCCCC2)c1       Fulfilled
3  Cc1ccc(Cn2ccc(NC(=O)c3cc(C(C)C)on3)n2)cc1   Not fulfilled
4  Cc1ccc2nc(SCc3cn4c(C)cc(C)nc4n3)[nH]c2c1   Not fulfilled
5  O=C(Nc1ccn(Cc2ccccc2)n1)c1n[nH]c([N+](=O)[O-])c1Cl       Fulfilled

In: Is the reported protection (pct of control) for COC(=O)c1ccc(C(=O)OC)c(NC(=S)N2CCN(c3ccc(F)cc3)CC2)c1 strictly below 9%?
Out: Not fulfilled

In: Is the reported protection (pct of control) for O=C(Nc1ccn(Cc2ccc(F)cc2)n1)c1ccncc1 strictly below 9%?
Out: Not fulfilled

In: Is the reported protection (pct of control) for Cc1ccc(-c2nc(C)sc2CC(=O)OCC(=O)Nc2c(F)cccc2F)cc1 strictly below 9%?
Out: Fulfilled

In: Is the reported protection (pct of control) for Cc1ccccc1N(C(=O)Cc1cccs1)C(C(=O)NC1CCCCC1)c1cn(C)nc1C (stereo not given) strictly below 9%?
Out: Not fulfilled

* * *

Please provide measured protection (pct of control) for the entries that follow.
MEASUREMENT NOTES: blockers of measles virus-induced cell death – single point, MLSMR library, absorbance, measles RdRp inhibitor project, primary screen (AID 841)
CONDITION PARAMETERS: Measles virus-infected cells, CPE protection, at 4 µM, stronger effect = higher value
Screen size: about 140,000 compounds; about 2,100 (1.5%) were called active. Only a selection was taken, and actives are over-represented in it overall.
Give bare numbers, in %.

Recorded protection (pct of control), per entry:
> print(dat)
                                   molecule              measured.metric  experimental.value
1  O=C(Cn1c(=O)n(Cc2ccco2)c(=O)c2ccccc21)NCC1CCCO1 (stereo not given)  protection (pct of control)                42.5
2  CCn1cc(CNC(=O)c2cc([N+](=O)[O-])c(C)c([N+](=O)[O-])c2)cn1  protection (pct of control)                3.52
3  O=C(CNC(=O)C(c1ccccc1)c1ccccc1)N/N=C\c1ccc2c(c1)OCO2  protection (pct of control)                17.5

Take each entry in turn and give its protection (pct of control).
1. CCOC(=O)c1c(C)nc(-c2ccccc2)nc1NC(=O)C(C)C
2. COc1ccccc1NC(=O)CSc1nc2sc(C)c(C)c2c(=O)n1Cc1ccco1
3. COc1ccc(NC(=O)Cn2c(=O)n(Cc3ccco3)c(=O)c3ccccc32)cc1
4. CCOC(=O)c1c(C)[nH]c(=S)c(C#N)c1-c1ccccc1
5. COc1cc(Cl)c(C)cc1NC(=O)CSc1nnc(-c2cccnc2)n1Cc1ccco1
6. CCC(C)NCCOCCOc1ccc(Br)cc1C (stereo not given)

Out:
[92.6, 48.9, 4.73, 1.99, 6.16, 5.1]

In: Return reported protection (pct of control); argument: COc1ccc(NC(=O)CSc2nnc(-c3cccs3)n2Cc2ccco2)cc1OC
Out: 5.61

* * *

MEASUREMENT NOTES: blockers of measles virus-induced cell death – single point, MLSMR library, absorbance, measles RdRp inhibitor project, primary screen (AID 841)
CONDITION PARAMETERS: Measles virus-infected cells, CPE protection, at 4 µM, stronger effect = higher value
The campaign covered roughly 140,000 compounds. About 2,100 (1.5%) were called active. The list comes from a sample in which actives are over-represented; it also holds close analogues and randomly drawn compounds.
Label scheme, based on protection (pct of control): bin 0 = under 10%, bin 1 = from 10% up to 20%, bin 2 = 20% and over

Use the examples below as a reference point.
> print(dat)
                                   compound  discrete.label
1  O=C(Nc1ccc2c(c1)OCCO2)C1CCCN(c2ncccn2)C1 (stereo not drawn)           bin 0
2  COCCOC(=O)c1c(C)oc2cc(Br)c(OCC(N)=O)cc12           bin 1
3  Cc1ccnc(N2CCCC(C(=O)Nc3cc(F)ccc3C)C2)n1 (stereo not drawn)           bin 2
4                    N=C(N)SCc1cccc2ccccc12           bin 2
5       CCCCOc1ccc(CSC(=N)N)cc1[N+](=O)[O-]           bin 2

In: Given C=C(C)c1cccc(C(C)(C)NC(=O)NC2CCCC2)c1 , name the class its protection (pct of control) places it in.
Out: bin 0

In: Given O=C(NNc1ccccn1)c1ccc(Cl)nc1 , name the class its protection (pct of control) places it in.
Out: bin 0

In: Given O=C(/C=C/c1cnc2ccccc2n1)NC1CCCCCC1 , name the class its protection (pct of control) places it in.
Out: bin 0

In: Given COc1cc(OC)nc(NC(=O)CCl)n1 , name the class its protection (pct of control) places it in.
Out: bin 1

In: Given O=C(CCl)NNc1cccc(Cl)n1 , name the class its protection (pct of control) places it in.
Out: bin 2

In: Given CCOc1ccc(Br)cc1CSC(=N)N , name the class its protection (pct of control) places it in.
Out: bin 2

In: Given COc1ccccc1Oc1ccc(N/C=C2/CCCC2=O)cc1 , name the class its protection (pct of control) places it in.
Out: bin 2

* * *

Please provide measured protection (pct of control) for the entries that follow.
MEASUREMENT NOTES: blockers of measles virus-induced cell death – single point, MLSMR library, absorbance, measles RdRp inhibitor project, primary screen (AID 841)
CONDITION PARAMETERS: Measles virus-infected cells, CPE protection, at 4 µM, stronger effect = higher value
The whole screen tested about 140,000 compounds, of which about 2,100 (1.5%) were called active. The full list was thinned out, with actives kept by preference.
Numbers only, in %.

> print(dat)
                                   compound              measured.metric  experimental.value
1  COc1ccc(C(=O)N(Cc2ccc(N(C)C)cc2)C2CCS(=O)(=O)C2)cc1 (stereo unspecified)  protection (pct of control)                1.51
2  CCCCC(=O)N(c1ccc(OC)cc1)C1C=CS(=O)(=O)C1 (stereo unspecified)  protection (pct of control)                43.6
3          COC(=O)c1ccc(NCC(=O)c2ccccc2)cc1  protection (pct of control)                2.68

Take each entry in turn and give its protection (pct of control).
1. CCOc1ccc2nc(C(=O)N3CCCC(C)C3)sc2c1 (stereo unspecified)
2. Cc1ccc(S(=O)(=O)Nc2nc(C)cc(N/N=C/c3ccc(O)cc3)n2)cc1
3. O=C(COC(=O)c1ccccc1)Nc1ccccc1Sc1ccccc1

Out:
14.9
10.3
6.19

* * *

MEASUREMENT NOTES: blockers of measles virus-induced cell death – single point, MLSMR library, absorbance, measles RdRp inhibitor project, primary screen (AID 841)
CONDITION PARAMETERS: Measles virus-infected cells, CPE protection, at 4 µM
Among all 140,000 compounds or so, about 2,100 (1.5%) were called active. Cut-off read from the data, not from the text of the source: active = protection mostly above about 24% (no sharp cut-off); inactive = mostly below about 26%. This excerpt belongs to a sample that is enriched for actives.
// allowed return values: active, inactive

> print(dat)
                                   molecule  discrete.label
1     O=C(/C=C/Nc1ccccc1)c1cnc(-c2ccccc2)s1          active
2  CCCCOc1ccc(NC(=O)[C@@H]2CCCN2C(=O)C2CCN(S(=O)(=O)c3ccc(C)cc3)CC2)cc1        inactive
3  CCN(CC)S(=O)(=O)c1ccc(C)c(NC(=O)COc2ccc(Br)cc2Cl)c1          active
4           CC(C)(C)C(=O)c1cnc(Nc2ccccc2)s1        inactive
5  CC(=O)Nc1cccc(NC(=O)c2c(-c3ccccc3)noc2C)c1        inactive

In: State the result this test recorded for CCCCc1ccc(NC(=S)N2CCCC(CO)C2)cc1 (stereo not given) .
Out: inactive
